# credit: PubChem BioAssay (NCI)

// reported TGI per item
Tested on: OVCAR-4 ovarian
testMethodNotes: NCI tumour cell line growth inhibition, 48 h
Write the answer as a number in µM, unit excluded.

compound: C[C@]12CC[C@@H]3c4ccc(O)cc4CC[C@H]3[C@@H]1CC(Cc1ccccc1)(Cc1ccccc1)C2=O
unitText: µM
measValue: 27.3
//
compound: N=C1c2ccccc2C(=O)c2c(NCCNCCO)ccc(O)c21
unitText: µM
measValue: 83.3
//
compound: COC1=CC(c2ccc[nH]2)=N/C1=C\c1[nH]c(C)c(CC(=O)NCc2ccccc2)c1C
unitText: µM
measValue: 2.93
//
compound: Cn1cc(-c2ncnc3ccc(-c4cnc(Cl)c(NS(C)(=O)=O)c4)cc23)c2ccccc21
unitText: µM
measValue: 6.99

Prompt line: // TGI lookup, key: COc1ccc(-c2c(NC(=O)Nc3ccc(Cl)c(C(F)(F)F)c3)cnn2-c2ccc(S(N)(=O)=O)cc2)cc1
Response line: 13.1

Prompt line: // TGI lookup, key: NC(=O)c1ccc(I)c([N+](=O)[O-])c1
Response line: 32.1

Prompt line: // TGI lookup, key: CCCCCCCCCCCCCCCCCC1=NC(C)(C)CN1C(C)(C)CO
Response line: 4.92

----------
Tested on: KM12 colon
testMethodNotes: NCI tumour cell line growth inhibition, 48 h
endpointLabel: TGI

Solved entries (count: 10):
compound: CC(C)(C)c1ccc(NS(=O)(=O)c2ccc(N)cc2)cc1
TGI: > 100 µM
//
compound: O=C(O)CN1CCN2CCCCCCCCN(CC1)CCN(CC(=O)O)CC2
TGI: > 100 µM
//
compound: CCOP(=O)(OCC)/C(=C\n1ccc(=O)[nH]c1=S)C(=O)OC
TGI: > 100 µM
//
compound: CCCCSC1CCSc2c1ccc1ccccc21 (stereo not given)
TGI: > 100 µM
//
compound: CCc1cc2c(cc1C(=O)CCC(=O)O)CC1(C2)Cc2cc(CC)c(C(=O)CCC(=O)O)cc2C1
TGI: > 100 µM
//
compound: CCCCC1Nc2ccccc2-c2ccnc(Cl)c21 (stereo not given)
TGI: 69 µM
//
compound: Cc1ccc2c(ccc3ncc(CNc4ccc(NS(C)(=O)=O)cc4)c32)[nH]1
TGI: 36.6 µM
//
compound: COC(=O)C(/C(=N/N)C(=O)Nc1cc(Cl)ccc1Cl)c1nc2ccc([N+](=O)[O-])cc2[nH]c1=O (stereo not given)
TGI: > 100 µM
//
compound: Cc1ccccc1SC(/C=C/NNC1=NC(c2ccccc2)C(c2ccccc2)=NN1)c1ccccc1 (stereo not given)
TGI: > 100 µM
//
compound: COc1cc(/C=C2\C(=O)Nc3ccc(Cl)cc32)cc(OC)c1OC
TGI: > 100 µM

Prompt line: Query the reported TGI for KM12 colon; item: Cc1cc(C)n(CN(CCCCO)Cn2nc(C)cc2C)n1
Response line: 60.6 µM

----------
Tested on: MDA-MB-435
testMethodNotes: NCI tumour cell line growth inhibition, 48 h
// reported TGI per item
Write the answer as a number in nM, unit excluded.

Solved entries (count: 2):
compound: COc1cc(/C=C2\C[C@H]3[C@@H]4CC=C5C[C@@H](O)CC[C@]5(C)[C@H]4CC[C@]3(C)[C@H]2O)ccc1OCCN1CCCCC1
unitText: nM
measValue: 1800

compound: CCCCCCCC(=O)Nc1nc2[nH]c(CN3CCN(Cc4cccc(I)c4)CC3)c(CN3CCN(Cc4cccc(I)c4)CC3)c2c(=O)[nH]1
unitText: nM
measValue: 1550

Then there is this compound:
Prompt line: // TGI lookup, key: COc1ccccc1N1C(=O)CSC1c1cccc(Oc2ccccc2)c1 (centres undefined)
Response line: 32000

----------
Test system: SK-MEL-2 melanoma
testMethodNotes: NCI tumour cell line growth inhibition, 48 h; in the data active means GI50 below about 0.43 µM; inactive means the rest
// allowed return values: y (active), n (inactive)

Before answering, review these 3 worked examples.
compound: NC(=O)c1ccc(I)c([N+](=O)[O-])c1
qualitativeLabel: n
--
compound: CCC(CO)Nc1nc(NCc2ccccc2)c2n[nH]c(C(C)C)c2n1 (configuration not stated)
qualitativeLabel: n
--
compound: COc1ccc(-c2c(NC(=O)Nc3ccc(Cl)c(C(F)(F)F)c3)cnn2-c2ccc(S(N)(=O)=O)cc2)cc1
qualitativeLabel: n

Prompt line: Lab log entry: CCOc1ccc(Nc2ccnc3cc(Cl)ccc23)cc1 — outcome as called in the assay?
Response line: n

Prompt line: Lab log entry: COc1cc(/C=C/C(=O)c2ccccc2O)ccc1OCCCOc1cc2c(cc1OC)C(=O)N1CCC[C@H]1C=N2 — outcome as called in the assay?
Response line: y

Prompt line: Lab log entry: N#C[S-].[Ce+3].c1ccc(-c2ccccn2)nc1.c1ccc(-c2ccccn2)nc1.c1ccc(-c2ccccn2)nc1 — outcome as called in the assay?
Response line: n

Prompt line: Lab log entry: FC(F)(F)c1cccc(Oc2ccc(Nc3ncnc4ccc(OCCCN5CCOCC5)cc34)cc2Cl)c1 — outcome as called in the assay?
Response line: n

----------
// reported TGI per item
Tested on: RXF-631 renal
testMethodNotes: NCI tumour cell line growth inhibition, 48 h

Solved entries (count: 10):
compound: Cc1ccc(NC(=O)CCc2nnc3s/c(=C\C=C\c4ccccc4)c(=O)n23)cc1
TGI: > 100 µM

compound: Cc1ccc([N+](=O)[O-])cc1NC(=O)C(=O)Cc1nc2ccc(C(=O)c3ccccc3)cc2[nH]c1=O
TGI: > 100 µM

compound: CCCCCCCCCCNC(=S)OC
TGI: > 100 µM

compound: O=CC1=CCCN(CCc2c[nH]c3ccccc23)C1
TGI: 102 µM

compound: CC1CCCc2c1n[nH]c2CC1CC(=O)NC(=O)C1 (configuration not stated)
TGI: > 100 µM

compound: COc1ccc(/C=C/c2cc(OC)c(OC)c(OC)c2)cc1OC
TGI: > 100 µM

compound: COc1ccc2c(c1)c1ccc3c(c1n2C)C(=O)C=CC3=O
TGI: > 45.5 µM

compound: CSc1ccc(Cc2cc(C(C)(C)C)cc(C(C)(C)C)c2O)cc1
TGI: 29.4 µM

compound: OC(c1cc2ccccc2[nH]1)C(O)(c1cc2ccccc2[nH]1)c1cc2ccccc2[nH]1 (configuration not stated)
TGI: 58.3 µM

compound: O=C(O)C(Cc1ccccc1)N=Cc1nc(-c2ccccc2)oc1O (configuration not stated)
TGI: > 100 µM

Prompt line: // TGI lookup, key: [N-]=[N+]=C1C(=O)C2CC3CC1CC2C3 (configuration not stated)
Response line: > 100 µM

Prompt line: // TGI lookup, key: O=[N+]([O-])c1cc(I)cc(/C=N/NS(=O)(=O)c2ccc(F)cc2)c1O
Response line: 57.9 µM

----------
System: HCC-2998 colon
testMethodNotes: NCI tumour cell line growth inhibition, 48 h
// reported TGI per item

Solved entries (count: 5):
molecule: O=C([O-])c1ccccc1Nc1ccccc1C(=O)[O-].[OH3+].[Zn+2]
targetEntity: HCC-2998 colon
TGI: > 100 µM
//
molecule: N=C1c2ccccc2C(=O)c2c(NCCNCCO)ccc(O)c21
targetEntity: HCC-2998 colon
TGI: 21.4 µM
//
molecule: Cc1cc(C)c([I+]c2c(C)cc(C)cc2C)c(C)c1
targetEntity: HCC-2998 colon
TGI: 1.73 µM
//
molecule: COC(=O)CC(C(C(=O)OCc1ccccc1)C(C)O)N1C(=O)OCC1c1ccccc1 (stereo not drawn)
targetEntity: HCC-2998 colon
TGI: > 100 µM
//
molecule: O=[N+]([O-])c1cc(I)cc(/C=N/NS(=O)(=O)c2ccc(F)cc2)c1O
targetEntity: HCC-2998 colon
TGI: > 100 µM

Prompt line: // TGI lookup, key: Cc1cn(CC2(CO)CCC2)c(=O)[nH]c1=O
Response line: > 100 µM

Prompt line: // TGI lookup, key: O=C1NN(C(=O)c2ccccc2)C(c2ccc(Cl)c(Cl)c2)=C/C1=C\c1ccccc1[N+](=O)[O-]
Response line: 5.48 µM

Prompt line: // TGI lookup, key: CS(=O)(=O)c1ccc(C(=O)O[C@@H]2C(=O)N3CC[C@H]4OC(O)[C@@H]2[C@H]43)cc1 (stereo partly drawn)
Response line: > 100 µM

Prompt line: // TGI lookup, key: O=C1NCN(c2ccccc2)C12CCN(CCCN1CCN(CCOC(c3ccccc3)c3ccccc3)CC1)CC2
Response line: 1.02 µM

Prompt line: // TGI lookup, key: C/C(=N\N)C(CN1CCOCC1)C(c1ccccc1)c1c(O)c2ccccc2oc1=O (stereo not drawn)
Response line: > 100 µM

Prompt line: // TGI lookup, key: Cc1cn(C(CO)OC(CO)CN(O)C2C3CC4CC(C3)CC2C4)c(=O)[nH]c1=O (stereo not drawn)
Response line: > 100 µM

Prompt line: // TGI lookup, key: NC(=O)c1ccc(I)c([N+](=O)[O-])c1
Response line: > 100 µM

Prompt line: // TGI lookup, key: COC(=O)CCCCCOS(=O)(=O)c1ccc(C)cc1
Response line: > 100 µM

Prompt line: // TGI lookup, key: O=C(Nc1ccc(Cl)cc1)c1cc(NCc2cc(O)ccc2O)ccc1O
Response line: 21.4 µM

Prompt line: // TGI lookup, key: NC1=Nc2ccccc2Sc2nccn21
Response line: 43 µM

Prompt line: // TGI lookup, key: Cc1ccc(S(=O)(=O)NC(Cc2ccccc2)C(=O)CCl)cc1 (stereo not drawn)
Response line: 26.9 µM

Prompt line: // TGI lookup, key: Cc1ccc(NC(=O)C(=O)C2C(=O)NC(=O)NC2=O)c(C)c1
Response line: > 100 µM

Prompt line: // TGI lookup, key: CC(=O)NNc1ncc(C(=O)/C=C/c2ccccc2C)s1
Response line: > 100 µM
